- experimental target: human Claudin18.2 (CLDN18.2) (UniProt P56856 1-261)
- experimental details: FACS cell binding; GAXC031 cells
# EC50 values compiled below
Express your answer in nM, writing the number without its unit.

Which EC50 value belongs to humanized Ab15 (VH3×VLN1) (antibody, V domains shown) VH: EVMLVESGGGVVQPGGSLRLSCAASGFTFSTYTMSWVRQTPEKRLEWVATIVGGGGYTYYLDSVKGRFTISRDNAKNTLYLQMNSLRTEDTALYYCARMGLTQRNALDYWGQGTLITVSS VL: DIVMTQSPDSLAVSLGERATINCKSSQSLFNSGNQKNYLAWYQQKPGQPPKLLIYGASTRESGVPDRFSGSGFGTDFTLTISSLQAEDVAVYYCQNDHTYPLTFGAGTKLEIK ? 28.6

Given the binder chAb15 (antibody, V domains shown) VH: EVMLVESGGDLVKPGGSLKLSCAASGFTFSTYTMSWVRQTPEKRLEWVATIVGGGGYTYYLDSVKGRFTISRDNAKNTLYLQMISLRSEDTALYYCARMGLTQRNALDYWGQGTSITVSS VL: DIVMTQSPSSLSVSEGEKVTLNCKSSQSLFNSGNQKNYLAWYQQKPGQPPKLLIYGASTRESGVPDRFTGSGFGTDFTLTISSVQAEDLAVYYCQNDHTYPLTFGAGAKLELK , what is its reported EC50? 25.1

Could you share which EC50 value was measured for chAb17 (antibody, V domains shown) VH: QVQLKESGPGLVAPSQSLSITCTVSGFSLTSYAISWVRQPPGKGLEWLGEIWTGGGTNYNSALKSRLSISKDNSKSQVFLKMNSLQTDDTARYYCGRLSYGNSLDYWGQGTTLTVSS VL: DIVMTQSPSSLTVTAGEKVTMSCKSSQSLLNSGNQKNYLTWYQQKPGQPPKLLIYWASTRESGVPDRFTGSGSGTDFTLTVSSVQAEDLAVYYCQNNFIYPLTFGPGTKLELK ? 47
